Test system: 889142-216-R-J1-PDC complex spheroid viability
Test: Anticancer human tumor 889142-216-R-J1-PDC patient-derived bladder carcinoma cell line growth inhibition [POLQ]
Settings: second compound 0.0316 µM; first compound 0.1 µM; stronger effect = lower value
Each entry below carries its recorded viability, T/C.
The figure you give is taken to be in %; do not add the unit.

Use the examples below as a reference point.
- C=CCn1c(=O)c2cnc(Nc3ccc(N4CCN(C)CC4)cc3)nc2n1-c1cccc(C(C)(C)O)n1 + Cc1cccc(N(C)C(=O)C2C(O)CCN2c2nc(C)cc(C(F)(F)F)c2C#N)c1: 101
- CC[C@@]1(O)C(=O)OCc2c1cc1n(c2=O)Cc2cc3c(CN(C)C)c(O)ccc3nc2-1 + Cc1cccc(N(C)C(=O)C2C(O)CCN2c2nc(C)cc(C(F)(F)F)c2C#N)c1: 56.8

Q: Quick one: viability, T/C of COc1cc(C2c3cc4c(cc3C(OC3OC5COC(C)OC5C(O)C3O)C3COC(=O)C23)OCO4)cc(OC)c1O (stereo not given) + Cc1cccc(N(C)C(=O)C2C(O)CCN2c2nc(C)cc(C(F)(F)F)c2C#N)c1 ?
A: 74.5

Q: Quick one: viability, T/C of CC1COCCN1c1cc(C2(O)CC3CCC(C2)O3)c2cnn(-c3ccn[nH]3)c2n1 (stereo not given) + COC1C(OC(N)=O)C(O)C(Oc2ccc3c(O)c(NC(=O)c4ccc(O)c(CC=C(C)C)c4)c(=O)oc3c2C)OC1(C)C ?
A: 50.6

Q: Quick one: viability, T/C of CC[C@@]1(O)C(=O)OCc2c1cc1n(c2=O)Cc2cc3c(CN(C)C)c(O)ccc3nc2-1 + Nc1ccc(C#CCN(C(=O)Cc2ncc(C(F)(F)F)cc2C(F)(F)F)c2ccc(F)cc2)nn1 ?
A: 56.1

###

Each entry below carries its recorded pIC50.
Test system: 889142-216-R-J1-PDC complex spheroid viability
Experiment: Anticancer human tumor 889142-216-R-J1-PDC cell line growth inhibition [POLQ];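 note: spheroids exposed to compounds for seven days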
Settings: curve of first compound; second compound 0.316 µM
Procedure: Multicellular complex tumor spheroid response to Polymerase (POL) inhibitors (novobiocin, ART-558, RP6685) in combination with a variety of drugs and investigational agents in selected tumor cell lines The POL inhibitors (novobiocin, ART-558, and RP6685) were evaluated both individually and in combination with standard of care and investigational anticancer small molecules within a complex spheroid model of solid tumors. . […]
pIC50: −log10 of the molar value.

* CCc1cc2c(N3CCc4c(cc(Cn5ccnc5)cc4-c4cn(C)nc4C(F)(F)F)C3=O)cc(C)nc2c(OC)n1 + Cc1cccc(N(C)C(=O)C2C(O)CCN2c2nc(C)cc(C(F)(F)F)c2C#N)c1 | < 5.00
* CNCc1ccc(-c2[nH]c3cc(F)cc4c3c2CCNC4=O)cc1 + COC1C(OC(N)=O)C(O)C(Oc2ccc3c(O)c(NC(=O)c4ccc(O)c(CC=C(C)C)c4)c(=O)oc3c2C)OC1(C)C | < 5.00
* CCc1cc2c(N3CCc4c(cc(Cn5ccnc5)cc4-c4cn(C)nc4C(F)(F)F)C3=O)cc(C)nc2c(OC)n1 + COC1C(OC(N)=O)C(O)C(Oc2ccc3c(O)c(NC(=O)c4ccc(O)c(CC=C(C)C)c4)c(=O)oc3c2C)OC1(C)C | < 5.00
* O=C(c1cc(Cc2n[nH]c(=O)c3ccccc23)ccc1F)N1CCN(C(=O)C2CC2)CC1 + Nc1ccc(C#CCN(C(=O)Cc2ncc(C(F)(F)F)cc2C(F)(F)F)c2ccc(F)cc2)nn1 | < 5.00

Now consider a different compound.
Q: Quick one: pIC50 of CC1COCCN1c1cc(C2(O)CC3CCC(C2)O3)c2cnn(-c3ccn[nH]3)c2n1 (stereo not given) + Nc1ccc(C#CCN(C(=O)Cc2ncc(C(F)(F)F)cc2C(F)(F)F)c2ccc(F)cc2)nn1 ?
A: 6.68

###

Tested on: 889142-216-R-J1-PDC complex spheroid viability
Experiment: Anticancer human tumor 889142-216-R-J1-PDC cell line growth inhibition [POLQ];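 note: spheroids exposed to compounds for seven days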;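 for viability, T/C: 100% = DMSO vehicle control viability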
Settings: second compound 1 µM; first compound 3.16 µM; stronger effect = lower value
Each entry below carries its recorded viability, T/C.

- CCCS(=O)(=O)Nc1ccc(F)c(C(=O)c2c[nH]c3ncc(-c4ccc(Cl)cc4)cc23)c1F + Cc1cccc(N(C)C(=O)C2C(O)CCN2c2nc(C)cc(C(F)(F)F)c2C#N)c1: 66.8%
- C#Cc1c(F)ccc2cc(O)cc(-c3ncc4c(N5CC6CCC(C5)N6)nc(OCC56CCCN5CC(F)C6)nc4c3F)c12 (stereo not drawn) + COC1C(OC(N)=O)C(O)C(Oc2ccc3c(O)c(NC(=O)c4ccc(O)c(CC=C(C)C)c4)c(=O)oc3c2C)OC1(C)C: 62.8%

Now consider a different molecule.
Q: Quick one: viability, T/C of COc1ccc([C@@H](O)c2cc(-c3ncnc4cc(N5CCOCC5)ccc34)c(F)cc2Cl)nn1 + Cc1cccc(N(C)C(=O)C2C(O)CCN2c2nc(C)cc(C(F)(F)F)c2C#N)c1 ?
A: 52.5%

###

Tested on: 889142-216-R-J1-PDC complex spheroid viability
Assay: Anticancer human tumor 889142-216-R-J1-PDC cell line growth inhibition [POLQ];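 note: spheroids exposed to compounds for seven days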;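 for viability, T/C: 100% = DMSO vehicle control viability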
Conditions: second compound 0.0316 µM; first compound 1 µM; stronger effect = lower value
Each entry below carries its recorded viability, T/C.
The figure you give is taken to be in %; do not add the unit.

Q: Quick one: viability, T/C of C#Cc1c(F)ccc2cc(O)cc(-c3ncc4c(N5CC6CCC(C5)N6)nc(OCC56CCCN5CC(F)C6)nc4c3F)c12 (stereo not given) + Cc1cccc(N(C)C(=O)C2C(O)CCN2c2nc(C)cc(C(F)(F)F)c2C#N)c1 ?
A: 103

Q: Quick one: viability, T/C of CCc1c2c(nc3ccc(O)cc13)-c1cc3c(c(=O)n1C2)COC(=O)[C@]3(O)CC + Cc1cccc(N(C)C(=O)C2C(O)CCN2c2nc(C)cc(C(F)(F)F)c2C#N)c1 ?
A: 10.7

Q: Quick one: viability, T/C of CCc1cc2c(N3CCc4c(cc(Cn5ccnc5)cc4-c4cn(C)nc4C(F)(F)F)C3=O)ccnc2c(OC)n1 + Nc1ccc(C#CCN(C(=O)Cc2ncc(C(F)(F)F)cc2C(F)(F)F)c2ccc(F)cc2)nn1 ?
A: 137

Q: Quick one: viability, T/C of C=CCn1c(=O)c2cnc(Nc3ccc(N4CCN(C)CC4)cc3)nc2n1-c1cccc(C(C)(C)O)n1 + COC1C(OC(N)=O)C(O)C(Oc2ccc3c(O)c(NC(=O)c4ccc(O)c(CC=C(C)C)c4)c(=O)oc3c2C)OC1(C)C ?
A: 52

Q: Quick one: viability, T/C of O=C(Nc1ccc(O)c(NS(=O)(=O)c2ccc(F)cc2)c1)c1ccc(-c2ccccc2)cc1 + Nc1ccc(C#CCN(C(=O)Cc2ncc(C(F)(F)F)cc2C(F)(F)F)c2ccc(F)cc2)nn1 ?
A: 110

###

Each entry below carries its recorded viability, T/C.
Test system: 889142-216-R-J1-PDC complex spheroid viability
Experiment: Anticancer human tumor 889142-216-R-J1-PDC cell line growth inhibition [POLQ];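 note: spheroids exposed to compounds for seven days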;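 for viability, T/C: 100% = DMSO vehicle control viability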
Settings: second compound 1 µM; first compound 3.16 µM; stronger effect = lower value
The figure you give is taken to be in %; do not add the unit.

Use the examples below as a reference point.
* Nc1ccn(C2OC(CO)C(O)C2(F)F)c(=O)n1 (stereo not drawn) + COC1C(OC(N)=O)C(O)C(Oc2ccc3c(O)c(NC(=O)c4ccc(O)c(CC=C(C)C)c4)c(=O)oc3c2C)OC1(C)C | 37.6
* CC1COCCN1c1cc(-c2ccnn2C)c2ccnc(-c3ccn[nH]3)c2n1 (stereo not drawn) + COC1C(OC(N)=O)C(O)C(Oc2ccc3c(O)c(NC(=O)c4ccc(O)c(CC=C(C)C)c4)c(=O)oc3c2C)OC1(C)C | 36.2

Now consider a different molecule.
Q: Quick one: viability, T/C of O=C(Nc1ccc(O)c(NS(=O)(=O)c2ccc(F)cc2)c1)c1ccc(-c2ccccc2)cc1 + COC1C(OC(N)=O)C(O)C(Oc2ccc3c(O)c(NC(=O)c4ccc(O)c(CC=C(C)C)c4)c(=O)oc3c2C)OC1(C)C ?
A: 105

###

System: 889142-216-R-J1-PDC complex spheroid viability
Experiment: Anticancer human tumor 889142-216-R-J1-PDC cell line growth inhibition [POLQ];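 note: spheroids exposed to compounds for seven days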;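 for viability, T/C: 100% = DMSO vehicle control viability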
Conditions: second compound 0.0316 µM; first compound 0.1 µM; stronger effect = lower value
Experimental: Multicellular complex tumor spheroid response to Polymerase (POL) inhibitors (novobiocin, ART-558, RP6685) in combination with a variety of drugs and investigational agents in selected tumor cell lines The POL inhibitors (novobiocin, ART-558, and RP6685) were evaluated both individually and in combination with standard of care and investigational anticancer small molecules within a complex spheroid model of solid tumors. . […]
Each entry below carries its recorded viability, T/C.
The figure you give is taken to be in %; do not add the unit.

• COc1cccc2c1C(=O)c1c(O)c3c(c(O)c1C2=O)CC(O)(C(=O)CO)CC3OC1CC(N)C(O)C(C)O1 (stereo not drawn) + Cc1cccc(N(C)C(=O)C2C(O)CCN2c2nc(C)cc(C(F)(F)F)c2C#N)c1 = 69.3

Q: Request - read-out viability, T/C | tested on 889142-216-R-J1-PDC complex spheroid viability | compound CCc1cc2c(N3CCc4c(cc(Cn5ccnc5)cc4-c4cn(C)nc4C(F)(F)F)C3=O)cc(C)nc2c(OC)n1 + COC1C(OC(N)=O)C(O)C(Oc2ccc3c(O)c(NC(=O)c4ccc(O)c(CC=C(C)C)c4)c(=O)oc3c2C)OC1(C)C
A: 124

Q: Request - read-out viability, T/C | tested on 889142-216-R-J1-PDC complex spheroid viability | compound O=C(c1cc(Cc2n[nH]c(=O)c3ccccc23)ccc1F)N1CCN(C(=O)C2CC2)CC1 + Cc1cccc(N(C)C(=O)C2C(O)CCN2c2nc(C)cc(C(F)(F)F)c2C#N)c1
A: 99.7

Source listed as PubChem BioAssay AID1963831.
